The entries below come with measured pIC50 values attached.
Test system: 323965-272-R-J2-PDC complex spheroid viability
Test: Anticancer human tumor 323965-272-R-J2-PDC patient-derived pancreatic carcinoma cell line growth inhibition [CLK]
Conditions: curve of first compound; second compound 0.316 µM
pIC50: −log10 of the molar value.

Query string: Suppose we examine the compound CC(CO)NC(=O)c1cc(-c2ccc(Cl)cc2)nn(-c2cnn(C)c2)c1=O (stereo not drawn) + CN1CCN(c2cc(C(=O)Nc3cc4cc(-c5cnn(C)c5)ccc4cn3)ccn2)CC1 ; what pIC50 value has been reported?
Result string: > 7.50

Query string: And for CC1(C)CCC(CN2CCN(c3ccc(C(=O)NS(=O)(=O)c4ccc(NCC5CCOCC5)c([N+](=O)[O-])c4)c(Oc4cnc5[nH]ccc5c4)c3)CC2)=C(c2ccc(Cl)cc2)C1 + CN1CCN(c2cc(C(=O)Nc3cc4cc(-c5cnn(C)c5)ccc4cn3)ccn2)CC1 ?
Result string: > 7.50

Query string: And for CC(CO)NC(=O)c1cc(-c2ccc(Cl)cc2)nn(-c2cnn(C)c2)c1=O (stereo not drawn) + CNC(=O)c1ccc(Nc2nc(OC3CCCC3)c3c(-c4ccc5nc(C)oc5c4)c[nH]c3n2)c(OC)c1 ?
Result string: < 5.00

---

Test system: 323965-272-R-J2-PDC complex spheroid viability
Test: Anticancer human tumor 323965-272-R-J2-PDC cell line growth inhibition [CLK];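 note: spheroids exposed to agents for seven days before readout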;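 for viability, T/C: percent of DMSO vehicle control wells so 100% = untreated growth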
Conditions: second compound 0.1 µM; first compound 0.316 µM; stronger effect = lower value
The entries below come with measured viability, T/C values attached.
Give a bare numeral; the unit % is implied.

COMPOUND: COc1c(OCCCN2CCOCC2)ccc2c3n(c(=NC(=O)c4cnc(N)nc4)nc12)CCN3 + CNC(=O)c1ccc(Nc2nc(OC3CCCC3)c3c(-c4ccc5nc(C)oc5c4)c[nH]c3n2)c(OC)c1
EXPERIMENTAL_READOUT: viability, T/C
OBSERVED_MEASUREMENT: 31.2
--
COMPOUND: CCN1CCN(Cc2ccc(Nc3ncc(F)c(-c4cc(F)c5nc(C)n(C(C)C)c5c4)n3)nc2)CC1 + CNC(=O)c1ccc(Nc2nc(OC3CCCC3)c3c(-c4ccc5nc(C)oc5c4)c[nH]c3n2)c(OC)c1
EXPERIMENTAL_READOUT: viability, T/C
OBSERVED_MEASUREMENT: 55.7
--
COMPOUND: C#Cc1c(F)ccc2cc(O)cc(-c3ncc4c(N5CC6CCC(C5)N6)nc(OCC56CCCN5CC(F)C6)nc4c3F)c12 (stereo not given) + CN1CCN(c2cc(C(=O)Nc3cc4cc(-c5cnn(C)c5)ccc4cn3)ccn2)CC1
EXPERIMENTAL_READOUT: viability, T/C
OBSERVED_MEASUREMENT: 71.1

Query string: Notebook entry, 323965-272-R-J2-PDC complex spheroid viability assay: viability, T/C of C=C(F)C(=O)N1CCN(c2nc(OCC3CCCN3C)nc3c2CCN(c2cccc4cccc(Cl)c24)C3)CC1CC#N (stereo not given) + CN1CCN(c2cc(C(=O)Nc3cc4cc(-c5cnn(C)c5)ccc4cn3)ccn2)CC1 = ?
Result string: 38

Query string: And for COC1C=CCC(C)C(C)S(=O)(=O)NC(=O)c2ccc3c(c2)N(CC2CCC21)CC1(CCCc2cc(Cl)ccc21)CO3 (stereo not given) + CN1CCN(c2cc(C(=O)Nc3cc4cc(-c5cnn(C)c5)ccc4cn3)ccn2)CC1 ?
Result string: 53.5

Values were extracted from PubChem BioAssay AID2060619.
